Target: human glucagon receptor (Homo sapiens, UniProt P47871)
Construct: made in house; host or cells: FreeStyle CHO cells, transient transfection with pMSRαneo/hGCGR; membrane fraction (35,000 rpm pellet)
Sequence (P47871 26-477): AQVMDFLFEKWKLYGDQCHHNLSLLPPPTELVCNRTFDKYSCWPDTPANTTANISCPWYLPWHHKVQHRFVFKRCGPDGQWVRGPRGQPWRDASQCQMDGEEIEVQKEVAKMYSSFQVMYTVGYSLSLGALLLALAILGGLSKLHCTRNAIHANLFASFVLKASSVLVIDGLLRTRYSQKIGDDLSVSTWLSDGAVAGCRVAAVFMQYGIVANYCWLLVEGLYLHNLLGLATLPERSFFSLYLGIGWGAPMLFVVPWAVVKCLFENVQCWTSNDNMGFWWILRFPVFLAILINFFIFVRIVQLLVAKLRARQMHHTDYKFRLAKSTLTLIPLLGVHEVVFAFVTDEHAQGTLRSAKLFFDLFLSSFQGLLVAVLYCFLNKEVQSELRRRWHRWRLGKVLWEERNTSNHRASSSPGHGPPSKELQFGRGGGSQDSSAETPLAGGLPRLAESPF
Test: Glucagon binding inhibitory activity ([125I]-glucagon binding to glucagon receptor membrane protein)
Conditions: test compound 10 μM; 0.4% DMSO = 0%, non-labeled glucagon 1 μM = 100%

compound	quantity-unit	inhibitory rate (%) at 10 μM
Cc1c(C(Nc2ccc(C(=O)N(C)CCC(=O)O)cc2)C2CCCCC2)oc2ccccc12 (centres unmarked)	%	86
Cc1c(C(Nc2ccc(C(=O)N(C)CCC(=O)O)cc2)C2CCCCC2)oc2ccc(F)cc12 (centres unmarked)	%	78
Cc1c(C(Nc2ccc(C(=O)N(C)CCC(=O)O)nc2)C2CCCCC2)sc2ccccc12 (centres unmarked)	%	85
COCCOc1ccc2oc(C(Nc3ccc(C(=O)N(C)CCC(=O)O)cc3)C3CCCCC3)c(C)c2c1 (centres unmarked)	%	92
Cc1c(C(Nc2ccc(C(=O)N(C)CCC(=O)O)cc2)C(C)C)oc2ccc(OCc3ccccc3)cc12 (centres unmarked)	%	89
COc1ccc2oc(C(Nc3ccc(C(=O)N(C)CCC(=O)O)cc3)C3CCCCC3)c(C)c2c1 (centres unmarked) [Example A43]	%	80
Cc1c(C(Nc2ccc(C(=O)N(C)CCC(=O)O)nc2)C2CCCCC2)oc2ccc(F)cc12 (centres unmarked)	%	85
COc1ccc2oc(C(Nc3ccc(C(=O)N(C)CCC(=O)O)cc3)C3CCCCC3)c(C)c2c1 (centres unmarked) [Example A44]	%	82

---

Below is a list of entries, each paired with its recorded inhibition at 10 µM value.
Target: human glucagon receptor (Homo sapiens)
Construct: made in house; host or cells: FreeStyle CHO cells, transient transfection with pMSRαneo/hGCGR; membrane fraction (35,000 rpm pellet)
Test: Glucagon binding inhibitory activity ([125I]-glucagon binding to glucagon receptor membrane protein)
Conditions: test compound 10 μM; 0.4% DMSO = 0%, non-labeled glucagon 1 μM = 100%; read-out: inhibitory rate (%) at 10 μM
reported-metric: inhibition at 10 µM

compound	tested-target	observed-measurement
Cc1c(C(Nc2ccc(C(=O)NCCC(=O)O)cc2)C2CCCCC2)sc2ccccc12 (stereo not drawn) [Example A10]	human glucagon receptor (Homo sapiens)	80%
O=C(O)CCNC(=O)c1ccc(NC(c2cc3ccccc3s2)C2CCCCC2)cc1 (stereo not drawn) [Example A6]	human glucagon receptor (Homo sapiens)	87%
Cc1c(C(Nc2ccc(C(=O)N(C)CCC(=O)O)cc2)C2CCCCC2)oc2ccc(OC3CCOCC3)cc12 (single isomer, unassigned) [Example A83]	human glucagon receptor (Homo sapiens)	93%
COc1ccc2oc(C(CCCCSC)Nc3ccc(C(=O)N(C)CCC(=O)O)cc3)c(C)c2c1 (stereo not drawn) [Example A121]	human glucagon receptor (Homo sapiens)	59%
COc1ccc2cc(C(Nc3ccc(C(=O)NCCC(=O)O)cc3)C3CCCCC3)oc2c1 (stereo not drawn) [Example A35]	human glucagon receptor (Homo sapiens)	71%
Cc1c(C(CC(C)C)Nc2ccc(C(=O)N(C)CCC(=O)O)cc2)oc2ccc(Cl)cc12 (stereo not drawn) [Example A101]	human glucagon receptor (Homo sapiens)	76%
Cc1nn(Cc2ccccc2)cc1C(Nc1ccc(C(=O)NCCC(=O)O)cc1)C1CCCCC1 (stereo not drawn) [Example 41]	human glucagon receptor (Homo sapiens)	60%
CN(CCC(=O)O)C(=O)c1ccc(NC(c2cn(-c3ccccc3)nc2OCc2ccccc2)C2CCCCC2)cc1 (stereo not drawn) [Example 67]	human glucagon receptor (Homo sapiens)	72%
Cc1c(C(Nc2ccc(C(=O)N(C)CCC(=O)O)cn2)C(C)C)oc2ccc(OCC3CC3)cc12 (stereo not drawn) [Example A211]	human glucagon receptor (Homo sapiens)	70%
COc1ccc2oc(C(Nc3ccc(C(=O)N(C)CCC(=O)O)cc3)C3CCCCC3)c(C)c2c1 (stereo not drawn) [Example A27]	human glucagon receptor (Homo sapiens)	80%
COc1ccc2c(C(Nc3ccc(C(=O)N(C)CCC(=O)O)cc3)C3CCCCC3)c(C)oc2c1 (stereo not drawn) [Example A215]	human glucagon receptor (Homo sapiens)	72%
COc1ccc2oc(C(Nc3ccc(C(=O)N(C)CCC(=O)O)cc3)C3CCCCC3)c(C#N)c2c1 (stereo not drawn) [Example A109]	human glucagon receptor (Homo sapiens)	58%
CSCCCOc1ccc2oc(C(Nc3ccc(C(=O)NCCC(=O)O)cc3)C3CCCCC3)c(C)c2c1 (stereo not drawn) [Example A151]	human glucagon receptor (Homo sapiens)	78%
CN(CCC(=O)O)C(=O)c1ccc(NC(c2nn(-c3ccccc3)c3ccccc23)C2CCCCC2)cc1 (stereo not drawn) [Example A15]	human glucagon receptor (Homo sapiens)	72%
Cc1c(C(Nc2ccc(C(=O)N(C)CCC(=O)O)cc2)C2CCCCC2)sc2cc(C(F)(F)F)cnc12 (stereo not drawn) [Example A146]	human glucagon receptor (Homo sapiens)	77%

---

Molecular target: human glucagon receptor (Homo sapiens, UniProt P47871)
Construct: made in house; host or cells: FreeStyle CHO cells, transient transfection with pMSRαneo/hGCGR; membrane fraction (35,000 rpm pellet)
Assay: Glucagon binding inhibitory activity ([125I]-glucagon binding to glucagon receptor membrane protein)
Conditions: test compound 10 μM; 0.4% DMSO = 0%, non-labeled glucagon 1 μM = 100%; read-out: inhibitory rate (%) at 10 μM
reported-metric: inhibition at 10 µM

compound	reported-metric	observed-measurement
CN(CCC(=O)O)C(=O)c1ccc(NC(c2cn(-c3ccc(OC(F)(F)F)cc3)nc2OCc2ccccc2)C2CCCCC2)cc1 (centres unmarked)	inhibition at 10 µM	75%
CCC(CC)C(Nc1ccc(C(=O)N(C)CCC(=O)O)cc1)c1oc2ccc(F)cc2c1C (single isomer, unassigned) [Example A73]	inhibition at 10 µM	87%
CCc1nn(-c2cccc(OC)c2)cc1C(Nc1ccc(C(=O)N(C)CCC(=O)O)cc1)C1CCCCC1 (centres unmarked)	inhibition at 10 µM	69%
Cc1cc(F)ccc1-n1cc(C(Nc2ccc(C(=O)N(C)CCC(=O)O)cc2)C2CCCCC2)c(C)n1 (centres unmarked)	inhibition at 10 µM	61%
Cc1c(C(Nc2ccc(C(=O)N(C)CCC(=O)O)cc2)C2CCCCC2)oc2ccc(NS(=O)(=O)c3ccccc3)cc12 (centres unmarked)	inhibition at 10 µM	76%
Cc1nn(-c2ccc(C(F)(F)F)cc2)cc1C(Nc1ccc(C(=O)NCCC(=O)O)cc1)C1CCCCC1 (centres unmarked)	inhibition at 10 µM	70%
COCc1nn(-c2cc(C(F)(F)F)ccn2)cc1C(Nc1ccc(C(=O)N(C)CCC(=O)O)cc1)C1CCCCC1 (centres unmarked)	inhibition at 10 µM	62%
Cc1c(C(Nc2ccc(C(=O)N(C)CCC(=O)O)cc2)C2CCCCC2)oc2ccc(-c3ccccc3)cc12 (centres unmarked)	inhibition at 10 µM	96%
COCc1c(C(Nc2ccc(C(=O)N(C)CCC(=O)O)cc2)C2CCCCC2)oc2ccc(F)cc12 (single isomer, unassigned) [Example A49]	inhibition at 10 µM	86%
Cc1c(C(Nc2ccc(C(=O)NCCC(=O)O)cc2)C2CCCCC2)sc2cnccc12 (centres unmarked)	inhibition at 10 µM	75%
CCCCCCC(Nc1ccc(C(=O)N(C)CCC(=O)O)cc1)c1oc2ccc(OC)cc2c1C (centres unmarked)	inhibition at 10 µM	70%
O=C(O)CCNC(=O)c1ccc(NC(c2nn(C3CCCCC3)c3ccccc23)C2CCCCC2)cc1 (centres unmarked)	inhibition at 10 µM	71%
Cc1cc(F)ccc1-n1cc(C(Nc2ccc(C(=O)NCCC(=O)O)cc2)C2CCCCC2)c(C)n1 (centres unmarked)	inhibition at 10 µM	77%
COCc1nn(-c2ccccc2)cc1C(Nc1ccc(C(=O)NCCC(=O)O)cc1)C1CCCCC1 (centres unmarked)	inhibition at 10 µM	70%
CCOc1cccc(-n2cc(C(Nc3ccc(C(=O)NCCC(=O)O)cc3)C3CCCCC3)c(CC)n2)c1 (centres unmarked)	inhibition at 10 µM	76%
COCCN(C)c1ccc2oc(C(Nc3ccc(C(=O)N(C)CCC(=O)O)cc3)C3CCCCC3)c(C)c2c1 (centres unmarked)	inhibition at 10 µM	77%
Cc1c(C(C)Nc2ccc(C(=O)NCCC(=O)O)cc2)oc2ccc(OCc3ccccc3)cc12 (centres unmarked)	inhibition at 10 µM	85%

---

Target: human glucagon receptor (Homo sapiens)
Construct: made in house; host or cells: FreeStyle CHO cells, transient transfection with pMSRαneo/hGCGR; membrane fraction (35,000 rpm pellet)
Assay: Glucagon binding inhibitory activity ([125I]-glucagon binding to glucagon receptor membrane protein)
Details: test compound 10 μM; 0.4% DMSO = 0%, non-labeled glucagon 1 μM = 100%; read-out: inhibitory rate (%) at 10 μM

compound	quantity-unit	inhibition at 10 µM
Cc1c(C(Nc2ccc(C(=O)N(C)CCC(=O)O)cc2)C2CCCCC2)oc2cccc(F)c12 (stereo not shown) [Example A162]	%	79
COc1ccc(-n2cc(C(CC(C)C)Nc3ccc(C(=O)NCCC(=O)O)cc3)c(C3CC3)n2)cc1 (stereo not shown) [Example 44]	%	69
CCC(CC)C(Nc1ccc(C(=O)NCCC(=O)O)cc1)c1oc2ccc(OC)cc2c1C (stereo not shown) [Example A104]	%	68
Cc1c(C(Nc2ccc(C(=O)NCCC(=O)O)cn2)C2CCCCC2)oc2ccc(F)cc12 (stereo not shown) [Example A51]	%	71
CCCc1nn(-c2ccc(C(F)(F)F)cn2)cc1C(Nc1ccc(C(=O)N(C)CCC(=O)O)cc1)C1CCCCC1 (stereo not shown) [Example 6]	%	75
Cc1c(C(Nc2ccc(C(=O)N(C)CCC(=O)O)cc2)C2CCCCC2)oc2ccc(OC3CCS(=O)(=O)CC3)cc12 (stereo not shown) [Example A199]	%	88
COc1ccc2oc(C(Nc3ccc(C(=O)N(C)CCC(=O)O)cc3)C3CCCCC3)c(Br)c2c1 (stereo not shown) [Example A103]	%	66
